System: Plasmodium falciparum NF54 stage IV/V gametocytes
Assay: % inhibition of gametocyte viability (PrestoBlue); higher = more inhibition
Conditions: 5 µM; 48 h
Listed next: entries and their corresponding % inhibition of gametocyte viability.
recorded.endpoint: % inhibition of gametocyte viability (%)

{"chemical.string": "COc1ccc(C)cc1NC(=O)c1ccc(S(=O)(=O)N2CCCCC2)cc1", "measurement.units": "%", "value.operator": "=", "obs.value": 3.85}
{"chemical.string": "CC(C)(C)c1cc(C(=O)/C(C#N)=N/Nc2cccc(Cl)c2)no1", "measurement.units": "%", "value.operator": "<", "obs.value": 0}
{"chemical.string": "Clc1cc2nc(C3CCNCC3)n(Cc3ccc(CNCCc4cnc[nH]4)cc3)c2cc1Cl", "measurement.units": "%", "value.operator": "=", "obs.value": 1.67}
{"chemical.string": "Nc1ccc2oc(=O)ccc2c1I", "measurement.units": "%", "value.operator": "<", "obs.value": 0}
{"chemical.string": "Cc1c(CN(C)C(=O)/C=C/c2cnc3c(c2)C(C)(C)C(=O)N3)oc2ccccc12", "measurement.units": "%", "value.operator": "=", "obs.value": 9.55}

* * *

Tested on: Plasmodium falciparum NF54 stage IV/V gametocytes
Experiment: % inhibition of gametocyte viability (PrestoBlue); higher = more inhibition
Settings: 5 µM; 48 h
recorded.endpoint: % inhibition of gametocyte viability (%)

{"molecule": "COc1ccc(COc2cc3oc(=O)c4cc(C(C)O)ccc4c3cc2OC)cc1 (stereo not given)", "value.operator": "=", "obs.value": 11.6}
{"molecule": "O=C(CCCC(F)(F)F)N1CCC(c2nc(-c3nccs3)no2)CC1", "value.operator": "=", "obs.value": 2.08}
{"molecule": "Nc1cccc(-c2nc(N)nc(NC3Cc4ccccc4C3)n2)c1", "value.operator": "<", "obs.value": 0}
{"molecule": "CCCCCc1ccc(C(=O)NCCn2cc(CCCCCc3cnc(N)[nH]3)nn2)cc1", "value.operator": "=", "obs.value": 63.4}
{"molecule": "CCOCc1nc2c(N)nc3ccccc3c2n1CC(C)(C)O", "value.operator": "=", "obs.value": 14.8}
{"molecule": "COc1cccc(N2CCN(C3=Nc4c(F)cccc4[C@H](CC(=O)O)N3c3cc(C(F)(F)F)ccc3OC)CC2)c1", "value.operator": "=", "obs.value": 1.05}
{"molecule": "COc1cc(Cc2cnc(N)nc2N)cc(OC)c1OC", "value.operator": "=", "obs.value": 22.2}
{"molecule": "O=C(NCCN1CCCCC1)c1cccc(C(F)(F)F)c1", "value.operator": "<", "obs.value": 0}
{"molecule": "O=C(Nc1ccc(N2CCN(C(=O)c3ccccc3)CC2)cc1)c1ccc2c(c1)OCO2", "value.operator": "<", "obs.value": 0}
{"molecule": "NC(=O)c1c(N)sc2c1CCCCC2", "value.operator": "=", "obs.value": 8.3}

* * *

Test system: CHO
Assay: % viability of CHO cells (MTT); higher = less toxic
Settings: 2 µM; 48 h
recorded.endpoint: % viability of CHO cells (%)

{"molecule": "CC(=N)N1CC[C@H](SC2=C(C(=O)O)N3C(=O)[C@@H]([C@@H](C)O)[C@H]3C2)C1", "recorded.endpoint": "% viability of CHO cells", "measurement.units": "%", "obs.value": 85.2}
{"molecule": "C=CCN(C(=O)OCc1ccc([N+](=O)[O-])cc1)C1CCN(CC[C@](C)(CN(C)S(=O)(=O)c2ccccc2)c2ccccc2)CC1", "recorded.endpoint": "% viability of CHO cells", "measurement.units": "%", "obs.value": 129}
{"molecule": "FC(F)(F)c1cc(C(F)(F)F)c2ccc3nc(-c4nnco4)cn3c2n1", "recorded.endpoint": "% viability of CHO cells", "measurement.units": "%", "obs.value": 93.3}
{"molecule": "COc1cc(C)c2c(Oc3cccc(C(F)(F)F)c3)c(OC)cc(NC(C)CCCN)c2n1 (centres undefined)", "recorded.endpoint": "% viability of CHO cells", "measurement.units": "%", "obs.value": 95.6}

* * *

Test system: Plasmodium falciparum NF54 asexual blood stage
Assay: % inhibition of asexual blood stage proliferation (pLDH); higher = more inhibition
Settings: 2 µM; 72 h
I would appreciate it if you labelled entries T when % inhibition of asexual blood stage proliferation is 20% or higher, otherwise F.

{"compound": "NC(=O)c1nccn([C@@H]2O[C@H](CO)[C@@H](O)[C@H]2O)c1=O", "target.or.system": "Plasmodium falciparum NF54 asexual blood stage", "group.label": "F"}
{"compound": "C=C(C)n1c(=O)n(Cc2ccccc2C)c2ccccc21", "target.or.system": "Plasmodium falciparum NF54 asexual blood stage", "group.label": "F"}
{"compound": "O=C(O)c1cc(-c2ccccc2)nc2ccccc12", "target.or.system": "Plasmodium falciparum NF54 asexual blood stage", "group.label": "T"}
{"compound": "COc1cc(Cc2cnc(N)nc2N)c2c(c1OC)OC(C1CC1)C=C2 (configuration not stated)", "target.or.system": "Plasmodium falciparum NF54 asexual blood stage", "group.label": "F"}
{"compound": "CN(O)C(=O)c1cc2c(CN3CCC[C@H]3C(N)=O)cn(Cc3ccc(F)cc3)c2cn1", "target.or.system": "Plasmodium falciparum NF54 asexual blood stage", "group.label": "F"}
{"compound": "CCc1c(OCC2CCC2)c2cc(F)ccc2[nH]c1=O", "target.or.system": "Plasmodium falciparum NF54 asexual blood stage", "group.label": "T"}
{"compound": "O=c1ccc2ncc(=O)n3c2n1CC3CN1CCC(NCc2cc3c(cn2)OCCC3)CC1 (configuration not stated)", "target.or.system": "Plasmodium falciparum NF54 asexual blood stage", "group.label": "F"}
{"compound": "Oc1c(C(Nc2nc3ccccc3s2)c2ccc(OC(F)F)cc2)ccc2cccnc12 (configuration not stated)", "target.or.system": "Plasmodium falciparum NF54 asexual blood stage", "group.label": "T"}
{"compound": "CCC(C)(C)c1ccc(CC(C)CN2C[C@@H](C)O[C@@H](C)C2)cc1 (some centres not stated)", "target.or.system": "Plasmodium falciparum NF54 asexual blood stage", "group.label": "T"}
{"compound": "CCN(CC)S(=O)(=O)c1ccc(Cl)c(C(=O)Nc2sc3c(c2C#N)CCCC3)c1", "target.or.system": "Plasmodium falciparum NF54 asexual blood stage", "group.label": "F"}
{"compound": "Nc1nc2c(ncn2/C=C2/CC2(CO)CO)c(=O)[nH]1", "target.or.system": "Plasmodium falciparum NF54 asexual blood stage", "group.label": "F"}
{"compound": "C[C@@H](NC(=O)c1ccccc1-c1ccccc1)B(O)O", "target.or.system": "Plasmodium falciparum NF54 asexual blood stage", "group.label": "F"}
{"compound": "CCCCCCCCCN1C[C@@H](O)[C@H](O)[C@@H](O)[C@@H]1CO", "target.or.system": "Plasmodium falciparum NF54 asexual blood stage", "group.label": "T"}
{"compound": "NCC(=O)Nc1ccc(-n2nc(C(F)(F)F)cc2-c2ccc3c(ccc4ccccc43)c2)cc1", "target.or.system": "Plasmodium falciparum NF54 asexual blood stage", "group.label": "F"}
{"compound": "CCCCCOc1ccc(/C=C2\\Oc3c(ccc(O)c3O)C2=O)c(O)c1", "target.or.system": "Plasmodium falciparum NF54 asexual blood stage", "group.label": "F"}
{"compound": "c1cc(CN2CCCNCCNCCCNCC2)ccc1CN1CCCNCCNCCCNCC1", "target.or.system": "Plasmodium falciparum NF54 asexual blood stage", "group.label": "F"}
{"compound": "Cc1cc(NS(=O)(=O)c2ccc(-c3ccc(F)cc3F)cc2)no1", "target.or.system": "Plasmodium falciparum NF54 asexual blood stage", "group.label": "F"}
{"compound": "C(=C\\c1nc2ccccc2[nH]1)/c1ccc2c(c1)OCO2", "target.or.system": "Plasmodium falciparum NF54 asexual blood stage", "group.label": "F"}
{"compound": "CC(=O)N[C@H](C)C(=O)N[C@H](Cc1ccccc1)C(=O)O", "target.or.system": "Plasmodium falciparum NF54 asexual blood stage", "group.label": "T"}
{"compound": "CC(N)C12CC3CC(CC(C3)C1)C2 (configuration not stated)", "target.or.system": "Plasmodium falciparum NF54 asexual blood stage", "group.label": "F"}
{"compound": "N[C@H]1CCC[C@H]1C(=O)O", "target.or.system": "Plasmodium falciparum NF54 asexual blood stage", "group.label": "T"}
{"compound": "Nc1nnc(-c2ccc(Cl)cc2)s1", "target.or.system": "Plasmodium falciparum NF54 asexual blood stage", "group.label": "F"}

* * *

System: CHO
Assay: % viability of CHO cells (MTT); higher = less toxic
Settings: 20 µM; 48 h
Listed next: entries and their corresponding % viability of CHO cells.
recorded.endpoint: % viability of CHO cells (%)

{"chemical.string": "COc1ccc(NC(=O)c2cc3ccccn3n2)cc1", "target.or.system": "CHO", "obs.value": 57}
{"chemical.string": "O=C(O)c1ccccc1Sc1ncnc2sc3c(c12)CCC3", "target.or.system": "CHO", "obs.value": 89.7}
{"chemical.string": "Clc1cc2nc(C3CCNCC3)n(Cc3ccc(CNCCc4cnc[nH]4)cc3)c2cc1Cl", "target.or.system": "CHO", "obs.value": 96.1}
{"chemical.string": "CC(C)CCN1C(=O)C(C2=NS(=O)(=O)c3cc(NS(C)(=O)=O)ccc3N2)=C(O)[C@@H]2[C@H]3CC[C@H](C3)[C@@H]21", "target.or.system": "CHO", "obs.value": 109}
